# credit: patent US8748368B2

- experimentalSystem: human plasma thrombin (Homo sapiens)
- Construct: human plasma thrombin; from tissue; host or cells: plasma (from the name only)
- assayNotes: Affinity (Ki,app) for protease
- Type: biochemical
pKi: −log10 of the molar value. Positions of bridges follow the written chain, without caps; N, C: chain ends. No end group written: not given here.
quantity: pKi

Just so you know, measured pKi for EAMHSFCAFKADDGPCRAAHPRWFFNIFTRQCEEFIYGGCEGNQNRFESLEECKKMCTRD (disulfide 7-57, 16-40, 32-53) [PEP-1] came out at < 4.70

###

- experimentalSystem: human urine kallikrein (Homo sapiens, UniProt P06870)
- Construct: from tissue; host or cells: urine (from the name only)
- Sequence (P06870 25-262): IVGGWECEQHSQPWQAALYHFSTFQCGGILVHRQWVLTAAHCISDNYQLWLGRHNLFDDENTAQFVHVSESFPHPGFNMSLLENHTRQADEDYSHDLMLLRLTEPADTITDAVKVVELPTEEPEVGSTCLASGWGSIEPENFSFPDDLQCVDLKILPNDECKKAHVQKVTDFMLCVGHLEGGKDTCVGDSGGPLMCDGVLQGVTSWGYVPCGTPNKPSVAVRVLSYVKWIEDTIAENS
- assayNotes: Affinity (Ki,app) for protease
- Assay type: biochemical
pKi: −log10 of the molar value. Positions of bridges follow the written chain, without caps; N, C: chain ends. No end group written: not given here.
quantity: pKi

// returns pKi for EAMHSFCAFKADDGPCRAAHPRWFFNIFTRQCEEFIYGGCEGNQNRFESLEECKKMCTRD (disulfide 7-57, 16-40, 32-53) [PEP-1] with human urine kallikrein (Homo sapiens, UniProt P06870); value = < 4.00
